Ref: PubChem BioAssay AID1508601

- Tested Target: Cellular tumor antigen p53 (Homo sapiens)
- Method Description: p53 stabilisation in HPV-positive human cells, imaging, p53-positive nuclei imaging, 24 h, 48 h (AID 1508601)
- Run Conditions: 24/48 h, Library stock concentration: 46 uM, stronger effect = higher value
Hit rate of the full screen: of about 5,700 compounds, about 85 (1%) were called active. This excerpt belongs to a sample that is enriched for actives.
# p53-positive nuclei, normalised annotations
// return numeric value only (unit: %, not printed)

Compound	Value Kind	Measured Value
Cc1sc2c(c1C)C(c1ccc(Cl)cc1)=NC(CC(N)=O)c1nnc(C)n1-2 (centres undefined)	p53-positive nuclei, normalised	-0.111
CC1=C(O)C(=O)C=C2C1=CC=C1[C@@]2(C)CC[C@@]2(C)C3C[C@](C)(C(=O)O)CC[C@]3(C)CC[C@]12C (some centres undefined)	p53-positive nuclei, normalised	0.197
COc1ccc2c3c([nH]c2c1)C(CC(C)C)N1C(=O)C(CCC(=O)OC(C)(C)C)NC(=O)C1C3 (centres undefined)	p53-positive nuclei, normalised	-0.285

So what's the measured p53-positive nuclei, normalised for this one? CC1CN(Cc2ccc(F)cc2)CCN1C(=O)COc1ccc(Cl)cc1NC(N)=O (centres undefined) -0.174

----------
# nuclei count, normalised annotations
- Method Description: p53 stabilisation in HPV-positive human cells, imaging, p53-positive nuclei imaging, 24 h, 48 h (AID 1508601)
- Run Conditions: 24/48 h, measured here: cell number at 48 h, Library stock concentration: 10 mM
Hit rate of the full screen: of about 5,700 compounds, about 85 (1%) were called active. What follows is part of a selection rich in actives, with near analogues and random picks from the rest.
// return numeric value only (unit: %, not printed)

Consider the following illustrative entries.
Compound	Uom	nuclei count, normalised
O=C1C(=O)c2cccc3cccc1c23	%	115
COc1ccc2c3c([nH]c2c1)C(CC(C)C)N1C(=O)C(CCC(=O)OC(C)(C)C)NC(=O)C1C3 (stereo not given)	%	108
CN1CCC(C(=O)c2cccc(NC(=O)c3c(F)cc(F)cc3F)n2)CC1	%	105

So what's the measured nuclei count, normalised for this one? CCn1cnc2c(Nc3cccc(Cl)c3)nc(NC3CCCCC3N)nc21 (stereo not given) 21.9

Then Cc1sc2c(c1C)C(c1ccc(Cl)cc1)=NC(CC(=O)Nc1ccc(O)cc1)c1nnc(C)n1-2 (stereo not given) ? 109

----------
- Tested Target: Cellular tumor antigen p53 (Homo sapiens)
- Method Description: p53 stabilisation in HPV-positive human cells, imaging, p53-positive nuclei imaging, 24 h, 48 h (AID 1508601)
- Run Conditions: 24/48 h, measured here: p53 positive nuclei at 24 h, Library stock concentration: 3.33 mM, stronger effect = higher value
Screen size: about 5,700 compounds; about 85 (1%) were called active. The entries come from a sample that favours actives as a whole.
# p53-positive nuclei, normalised annotations
// return numeric value only (unit: %, not printed)

Compound	Uom	Measured Value
Cc1sc2c(c1C)C(c1ccc(Cl)cc1)=NC(CC(=O)OC(C)(C)C)c1nnc(C)n1-2 (stereo not drawn)	%	15.6
N#CC(OC1OC(COC2OC(CO)C(O)C(O)C2O)C(O)C(O)C1O)c1ccccc1 (stereo not drawn)	%	-0.0206

Field: next compound
So what's the measured p53-positive nuclei, normalised for this one? Cc1sc2c(c1C)C(c1ccc(Cl)cc1)=NC(CC(N)=O)c1nnc(C)n1-2 (stereo not drawn) 12.7

----------
# nuclei count, normalised annotations
- Method Description: p53 stabilisation in HPV-positive human cells, imaging, p53-positive nuclei imaging, 24 h, 48 h (AID 1508601)
- Run Conditions: 24/48 h, measured here: cell number at 48 h, Library stock concentration: 46 uM
Out of some 5,700 compounds screened, about 85 (1%) were called active. The entries come from a sample that favours actives as a whole.
// return numeric value only (unit: %, not printed)

Consider the following illustrative entries.
Molecule	Measured Value
CC1=C(O)C(=O)C=C2C1=CC=C1[C@@]2(C)CC[C@@]2(C)C3C[C@](C)(C(=O)O)CC[C@]3(C)CC[C@]12C (some centres undefined)	112
CC1CN(Cc2ccc(F)cc2)CCN1C(=O)COc1ccc(Cl)cc1NC(N)=O (centres undefined)	112
Cc1sc2c(c1C)C(c1ccc(Cl)cc1)=NC(CC(N)=O)c1nnc(C)n1-2 (centres undefined)	106

So what's the measured nuclei count, normalised for this one? COc1ccc2c3c([nH]c2c1)C(CC(C)C)N1C(=O)C(CCC(=O)OC(C)(C)C)NC(=O)C1C3 (centres undefined) 111

----------
- Method Description: p53 stabilisation in HPV-positive human cells, imaging, p53-positive nuclei imaging, 24 h, 48 h (AID 1508601)
- Run Conditions: 24/48 h, measured here: cell number at 24 h, Library stock concentration: 2 mM
About 85 (1%) of roughly 5,700 compounds were called active. The sample holds actives, similar compounds and a random draw of the others, so the mix is not that of the screen.
Value Kind: nuclei count, normalised (%)
// return numeric value only (unit: %, not printed)

Consider the following illustrative entries.
Compound	Value Kind	Measured Value
CC1=C(O)C(=O)C=C2C1=CC=C1[C@@]2(C)CCC2(C)C3C[C@](C)(C(=O)O)CC[C@]3(C)CC[C@]12C (some centres undefined)	nuclei count, normalised	92
Cc1sc2c(c1C)C(c1ccc(Cl)cc1)=NC(CC(=O)Nc1ccc(O)cc1)c1nnc(C)n1-2 (centres undefined)	nuclei count, normalised	113
CN1CCC(C(=O)c2cccc(NC(=O)c3c(F)cc(F)cc3F)n2)CC1	nuclei count, normalised	121

Field: next compound
So what's the measured nuclei count, normalised for this one? C[C@]12C=CC(=O)C=C1CC[C@@H]1[C@@H]2CC[C@]2(C)OC(=O)CC[C@@H]12 93

----------
# p53-positive nuclei, normalised annotations
- Tested Target: Cellular tumor antigen p53 (Homo sapiens)
- Method Description: p53 stabilisation in HPV-positive human cells, imaging, p53-positive nuclei imaging, 24 h, 48 h (AID 1508601)
- Run Conditions: 24/48 h, measured here: p53 positive nuclei at 24 h, Library stock concentration: 80 uM, stronger effect = higher value
The whole screen tested about 5,700 compounds, of which about 85 (1%) were called active. The full list was thinned out, with actives kept by preference.

So what's the measured p53-positive nuclei, normalised for this one? CCn1cnc2c(Nc3cccc(Cl)c3)nc(NC3CCCCC3N)nc21 (centres undefined) 0.0806%

----------
# p53-positive nuclei, normalised annotations
- Tested Target: Cellular tumor antigen p53 (Homo sapiens)
- Method Description: p53 stabilisation in HPV-positive human cells, imaging, p53-positive nuclei imaging, 24 h, 48 h (AID 1508601)
- Run Conditions: 24/48 h, measured here: p53 positive nuclei at 24 h, Library stock concentration: 278 uM, stronger effect = higher value
Out of some 5,700 compounds screened, about 85 (1%) were called active. Shown is part of a subset that was picked to be rich in actives.
// return numeric value only (unit: %, not printed)

Consider the following illustrative entries.
Compound	p53-positive nuclei, normalised (%)
CC1=C(O)C(=O)C=C2C1=CC=C1[C@@]2(C)CC[C@@]2(C)C3C[C@](C)(C(=O)O)CC[C@]3(C)CC[C@]12C (some centres undefined)	-0.0276
Cc1sc2c(c1C)C(c1ccc(Cl)cc1)=NC(CC(N)=O)c1nnc(C)n1-2 (centres undefined)	0.11
COc1ccc2c3c([nH]c2c1)C(CC(C)C)N1C(=O)C(CCC(=O)OC(C)(C)C)NC(=O)C1C3 (centres undefined)	0.0359

So what's the measured p53-positive nuclei, normalised for this one? CC1CN(Cc2ccc(F)cc2)CCN1C(=O)COc1ccc(Cl)cc1NC(N)=O (centres undefined) -0.0826

----------
- Method Description: p53 stabilisation in HPV-positive human cells, imaging, p53-positive nuclei imaging, 24 h, 48 h (AID 1508601)
- Run Conditions: 24/48 h, measured here: cell number at 24 h, Library stock concentration: 80 uM
Out of some 5,700 compounds screened, about 85 (1%) were called active. What follows is part of a selection rich in actives, with near analogues and random picks from the rest.
Value Kind: nuclei count, normalised (%)
// return numeric value only (unit: %, not printed)

Consider the following illustrative entries.
Molecule	Uom	Measured Value
C[C@]12C=CC(=O)C=C1CC[C@@H]1[C@@H]2CC[C@]2(C)OC(=O)CC[C@@H]12	%	87.6
O=C1C(=O)c2cccc3cccc1c23	%	115
NCCc1ccccc1Br	%	86.4
CC1=C(O)C(=O)C=C2C1=CC=C1[C@@]2(C)CCC2(C)C3C[C@](C)(C(=O)O)CC[C@]3(C)CC[C@]12C (stereo not given in full)	%	94.9

Field: next molecule
So what's the measured nuclei count, normalised for this one? CCn1cnc2c(Nc3cccc(Cl)c3)nc(NC3CCCCC3N)nc21 (stereo not given) 108
